Entry source: ChEMBL document CHEMBL3045968

Here the recorded logP is given for each entry.
experiment: physchem; details: octanol/water
Description: Lipophilicity, log P of the compound

Below, each entry is followed by its recorded logP result.
molecule="O=[N+]([O-])c1ccc(NP2(=O)NCCCO2)cc1 (configuration not stated)" quantity_measured=logP value_measured=-0.53
molecule=CC1(C)CNP(=O)(Nc2ccccc2)NC1 quantity_measured=logP value_measured=-0.03
molecule="NS(=O)(=O)c1ccc(NP2(=O)NCCCO2)cc1 (configuration not stated)" quantity_measured=logP value_measured=1.88
molecule="O=P1(Nc2ccccc2)NCCCO1 (configuration not stated)" quantity_measured=logP value_measured=0.29
molecule=NS(=O)(=O)c1ccc(NP2(=O)NCCCN2)cc1 quantity_measured=logP value_measured=1.56

Lab note: COc1ccc(NP2(=O)NCCCO2)cc1 (configuration not stated) gave logP of -0.71

Lab note: Cc1ccc(OP2(=O)NCCCO2)cc1 (configuration not stated) gave logP of 0.76
